# assay_notes: activity coefficient (dimensionless); of the first substance listed, at infinite dilution; xn = mol fraction of the nth substance listed
# assay_conditions: 358.15 K; 101 kPa; Liquid; Chromatography; x1 = 0
recorded_endpoint: activity coefficient
Answers are plain numbers.

A selection of reference data follows.
> print(dat)
                                   compound     recorded.endpoint  assay.value
1  C=CCCCCCC [oct-1-ene] + CCCCn1cc[n+](C)c1.COP(=O)([O-])OC  activity coefficient         27.5
2  C1=CCCCC1 [cyclohexene] + CCCCn1cc[n+](C)c1.[Cl-]  activity coefficient         22.8
3  CCCCCCCCCC [decane] + CCCCn1cc[n+](C)c1.[Cl-]  activity coefficient          704
4  C1CCCCCCC1 [cyclooctane] + CCCCn1cc[n+](C)c1.CS(=O)(=O)[O-]  activity coefficient         57.1
5  CCC(=O)OC [methyl propanoate] + CCCCn1cc[n+](C)c1.CS(=O)(=O)[O-]  activity coefficient         4.43

I have 3 compounds here; please give me activity coefficient for each one.
1. c1ccsc1 [thiophene] + CCCCn1cc[n+](C)c1.CS(=O)(=O)[O-]
2. CCCC(C)=O [pentan-2-one] + CCCCn1cc[n+](C)c1.COP(=O)([O-])OC
3. C1COCCO1 [1,4-dioxane] + CCCCn1cc[n+](C)c1.CS(=O)(=O)[O-]

Reply:
1. 1.72
2. 3.63
3. 2.33

Briefly, activity coefficient measured for Cc1ccc(C)cc1 [1,4-dimethylbenzene] + CCCCn1cc[n+](C)c1.[Cl-] : 13.6

====

# assay_notes: activity coefficient (dimensionless); of the first substance listed, at infinite dilution; xn = mol fraction of the nth substance listed
# assay_conditions: 428.15 K; 101 kPa; Liquid; Chromatography; x1 = 0
activity coefficient strictly under 0.7 means 1; at 0.7 or over means 0.

> print(dat)
                                   compound  answer.label
1  CC(C)CO [2-methyl-1-propanol] + CCCCn1cc[n+](C)c1.[Cl-]             1

Kindly consider the entry below.
Task item: Determine if CCCO [propan-1-ol] + CCCCn1cc[n+](C)c1.CS(=O)(=O)[O-] shows activity coefficient strictly lower than 0.7.
Reply: 0

====

# assay_notes: activity coefficient (dimensionless); of the first substance listed, at infinite dilution; xn = mol fraction of the nth substance listed
# assay_conditions: 368.15 K; 101 kPa; Liquid; Chromatography; x1 = 0
yes if activity coefficient is below 10. no if not; exact matches included in no.

Solved cases (6 shown):
> print(dat)
                                   compound  answer.label
1  CC1CCCCC1 [methylcyclohexane] + CCCCn1cc[n+](C)c1.CS(=O)(=O)[O-]            no
2  CCc1ccccc1 [ethylbenzene] + CCCCn1cc[n+](C)c1.[Cl-]            no
3  C#CCCCCCC [1-octyne] + CCCCn1cc[n+](C)c1.[Cl-]            no
4  C#CCCC [1-pentyne] + CCCCn1cc[n+](C)c1.COP(=O)([O-])OC           yes
5  C=CCCCCCC [oct-1-ene] + CCCCn1cc[n+](C)c1.[Cl-]            no
6  C1CCCCC1 [cyclohexane] + CCCCn1cc[n+](C)c1.[Cl-]            no

We now examine a further compound.
Task item: Is 10 strictly greater than the compound's reported activity coefficient? compound: CC(C)=O [acetone] + CCCCn1cc[n+](C)c1.COP(=O)([O-])OC
Reply: yes

====

# assay_notes: activity coefficient (dimensionless); of the first substance listed, at infinite dilution; xn = mol fraction of the nth substance listed
# assay_conditions: 408.15 K; 101 kPa; Liquid; Chromatography; x1 = 0
I'd appreciate it if you could supply activity coefficient values for the items below.
Numbers only.

Examples with their reported activity coefficient follow.
> print(dat)
                                   molecule  assay.value
1  CCC(C)O (configuration not stated) [butan-2-ol] + CCCCn1cc[n+](C)c1.COP(=O)([O-])OC        0.365
2  CCCCO [butan-1-ol] + CCCCn1cc[n+](C)c1.CS(=O)(=O)[O-]        0.984
3   CO [methanol] + CCCCn1cc[n+](C)c1.[Cl-]        0.166
4  CO [methanol] + CCCCn1cc[n+](C)c1.CS(=O)(=O)[O-]         0.34
5  O [water] + CCCCn1cc[n+](C)c1.COP(=O)([O-])OC        0.081

Your task in this section: give activity coefficient for each listed record.
1. CCCO [propan-1-ol] + CCCCn1cc[n+](C)c1.COP(=O)([O-])OC
2. CCO [ethanol] + CCCCn1cc[n+](C)c1.[Cl-]
3. CCO [ethanol] + CCCCn1cc[n+](C)c1.CS(=O)(=O)[O-]
4. CC(C)(C)O [2-methylpropan-2-ol] + CCCCn1cc[n+](C)c1.COP(=O)([O-])OC

Reply:
1. 0.218
2. 0.313
3. 0.553
4. 0.471

====

# assay_notes: activity coefficient (dimensionless); of the first substance listed, at infinite dilution; xn = mol fraction of the nth substance listed
# assay_conditions: 378.15 K; 101 kPa; Liquid; Chromatography; x1 = 0
activity coefficient vs 4: at or above is Criterion met, below is Criterion not met.

Solved entries:
> print(dat)
                                   compound       answer.label
1  CC#N [acetonitrile] + CCCCn1cc[n+](C)c1.CS(=O)(=O)[O-]  Criterion not met
2  C1CCCCCC1 [cycloheptane] + CCCCn1cc[n+](C)c1.CS(=O)(=O)[O-]      Criterion met
3  CCCC=O [butanal] + CCCCn1cc[n+](C)c1.CS(=O)(=O)[O-]  Criterion not met
4  c1ccccc1 [benzene] + CCCCn1cc[n+](C)c1.[Cl-]      Criterion met
5  CCC(C)(C)OC [2-methoxy-2-methylbutane] + CCCCn1cc[n+](C)c1.[Cl-]      Criterion met
6  Cc1ccccc1C [1,2-dimethylbenzene] + CCCCn1cc[n+](C)c1.CS(=O)(=O)[O-]      Criterion met
7  CCCC(C)=O [pentan-2-one] + CCCCn1cc[n+](C)c1.CS(=O)(=O)[O-]      Criterion met

Task item: Dear colleague, could you confirm whether c1ccncc1 [pyridine] + CCCCn1cc[n+](C)c1.COP(=O)([O-])OC has activity coefficient at or above 4?
Reply: Criterion not met

====

Provide the recorded activity coefficient for the entries that follow.
# assay_notes: activity coefficient (dimensionless); of the first substance listed, at infinite dilution; xn = mol fraction of the nth substance listed
# assay_conditions: 368.15 K; 101 kPa; Liquid; Chromatography; x1 = 0
One number for each entry.

Some solved entries appear below for comparison.
> print(dat)
                                   molecule  assay.value
1  C=COC(C)=O [vinyl acetate] + CCCCn1cc[n+](C)c1.CS(=O)(=O)[O-]         3.58
2  CCC(C)(C)OC [2-methoxy-2-methylbutane] + CCCCn1cc[n+](C)c1.CS(=O)(=O)[O-]         24.2
3  C=C(C)c1ccccc1 [(1-methylethenyl)benzene] + CCCCn1cc[n+](C)c1.CS(=O)(=O)[O-]         6.71

Batch lookup, activity coefficient per entry.
1. COC(C)(C)C [2-methoxy-2-methylpropane] + CCCCn1cc[n+](C)c1.[Cl-]
2. c1ccccc1 [benzene] + CCCCn1cc[n+](C)c1.COP(=O)([O-])OC
3. C#CCCCCC [1-heptyne] + CCCCn1cc[n+](C)c1.[Cl-]
4. CCc1ccccc1 [ethylbenzene] + CCCCn1cc[n+](C)c1.COP(=O)([O-])OC
5. C1=CCCCC1 [cyclohexene] + CCCCn1cc[n+](C)c1.[Cl-]

Reply:
1: 23.8; 2: 2.41; 3: 12.3; 4: 5.87; 5: 22.3

Field: activity coefficient. Fill in for each record below.
1. C#CCCCCCC [1-octyne] + CCCCn1cc[n+](C)c1.CS(=O)(=O)[O-]
2. CCC(C)(C)OC [2-methoxy-2-methylbutane] + CCCCn1cc[n+](C)c1.COP(=O)([O-])OC

Reply:
1: 18.6; 2: 9.61

====

# assay_notes: activity coefficient (dimensionless); of the first substance listed, at infinite dilution; xn = mol fraction of the nth substance listed
# assay_conditions: 378.15 K; 101 kPa; Liquid; Chromatography; x1 = 0
recorded_endpoint: activity coefficient
One number for each entry.

Please give activity coefficient for each item listed below.
1. Cc1ccccc1 [toluene] + CCCCn1cc[n+](C)c1.[Cl-]
2. Cc1ccccc1C [1,2-dimethylbenzene] + CCCCn1cc[n+](C)c1.[Cl-]
3. C=CCCCCCCCC [1-decene] + CCCCn1cc[n+](C)c1.COP(=O)([O-])OC
4. Cc1cccc(C)c1 [1,3-dimethylbenzene] + CCCCn1cc[n+](C)c1.CS(=O)(=O)[O-]
5. C=C(C)c1ccccc1 [(1-methylethenyl)benzene] + CCCCn1cc[n+](C)c1.CS(=O)(=O)[O-]
6. CC1CCCCC1 [methylcyclohexane] + CCCCn1cc[n+](C)c1.[Cl-]

Reply:
[8.09, 11.9, 50.4, 9.57, 6.96, 73]

Below are 3 compounds. Give each one its activity coefficient.
1. C=CCCCC [hex-1-ene] + CCCCn1cc[n+](C)c1.CS(=O)(=O)[O-]
2. c1ccncc1 [pyridine] + CCCCn1cc[n+](C)c1.CS(=O)(=O)[O-]
3. CCc1ccccc1 [ethylbenzene] + CCCCn1cc[n+](C)c1.CS(=O)(=O)[O-]

Reply:
1: 40; 2: 10.6; 3: 8.76

These entries and their values trace back to the NIST ThermoML archive (doi:10.1016/j.jct.2015.07.042).
